B1: TPR 5TU (parent)
chain: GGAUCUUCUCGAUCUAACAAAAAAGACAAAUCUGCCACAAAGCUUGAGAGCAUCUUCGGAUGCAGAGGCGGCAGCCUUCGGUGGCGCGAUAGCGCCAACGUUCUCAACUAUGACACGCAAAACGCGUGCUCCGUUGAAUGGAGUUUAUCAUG

variants of: B1; assay: polymerase ribozyme fitness, log enrichment relative to wild type (log ratio); higher = more active; in vitro selection for triplet polymerase activity
Fewer inactive variants are shown than the library holds.
Reported values of polymerase ribozyme fitness (log ratio) for individual entries

>>> observed_measurement("C8G A12U G25A A28U A39C G58C G94U U144G")
"≤ -4.2"

Documented polymerase ribozyme fitness (log ratio) of A23C U31C C99U C123U U134C : ≤ -4.2

According to the records, this variant C43U C95A displays polymerase ribozyme fitness (log ratio) of -4.15

What the record says about A89C U130A : polymerase ribozyme fitness (log ratio) is -3.07

The variant listed as U6C C93G shows polymerase ribozyme fitness (log ratio) equal to -3.54

U15G G46C C93A C95U yielded polymerase ribozyme fitness (log ratio) of ≤ -4.2
